# maps each entry to its STK11 functional score
B1: library; numbered along this chain (parent)
chain: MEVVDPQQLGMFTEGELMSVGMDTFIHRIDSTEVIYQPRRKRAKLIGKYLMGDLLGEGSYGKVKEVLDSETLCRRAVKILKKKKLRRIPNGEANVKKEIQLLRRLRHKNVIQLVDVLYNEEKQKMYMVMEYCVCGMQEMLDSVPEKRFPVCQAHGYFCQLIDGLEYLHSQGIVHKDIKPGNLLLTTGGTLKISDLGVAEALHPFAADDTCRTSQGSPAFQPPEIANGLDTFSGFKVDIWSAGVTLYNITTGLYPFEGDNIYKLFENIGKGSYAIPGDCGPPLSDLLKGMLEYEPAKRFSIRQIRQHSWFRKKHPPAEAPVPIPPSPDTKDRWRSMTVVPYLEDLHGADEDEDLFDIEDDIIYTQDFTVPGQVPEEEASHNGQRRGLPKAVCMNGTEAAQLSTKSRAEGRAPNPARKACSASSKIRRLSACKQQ

# Variants of: B1
# Method summary: STK11 functional score (HeLa growth suppression), rescaled enrichment; synonymous median = 1, nonsense median = 0 (normalised score)
# Condition notes: with HeLa; variant type: missense
Metric: STK11 functional score

>  <Variant string>
D258F

>  <Value observed>
0.78

$$$$
>  <Variant string>
R40K

>  <Value observed>
1

$$$$
>  <Variant string>
G268V

>  <Value observed>
0.743

$$$$
>  <Variant string>
G346S

>  <Value observed>
1.48

$$$$
>  <Variant string>
I79M

>  <Value observed>
0.465

$$$$
>  <Variant string>
K175W

>  <Value observed>
0.478

$$$$
>  <Variant string>
S422V

>  <Value observed>
1.05

$$$$
>  <Variant string>
F298S

>  <Value observed>
0.975

$$$$
>  <Variant string>
S404L

>  <Value observed>
1.47

$$$$
>  <Variant string>
H168V

>  <Value observed>
0.473

$$$$
>  <Variant string>
H379D

>  <Value observed>
1.18

$$$$
>  <Variant string>
M51Q

>  <Value observed>
1.66

$$$$
>  <Variant string>
V368Y

>  <Value observed>
1.54

$$$$
>  <Variant string>
N109L

>  <Value observed>
0.662

$$$$
>  <Variant string>
A200R

>  <Value observed>
0.878

$$$$
>  <Variant string>
K146A

>  <Value observed>
1.29

$$$$
>  <Variant string>
E199R

>  <Value observed>
1.67

$$$$
>  <Variant string>
Q112P

>  <Value observed>
1.24

$$$$
>  <Variant string>
A389V

>  <Value observed>
0.744

$$$$
>  <Variant string>
P315G

>  <Value observed>
1.29

$$$$
>  <Variant string>
M18D

>  <Value observed>
0.127

$$$$
>  <Variant string>
E92W

>  <Value observed>
1.03

$$$$

Data provenance is the supplement of paper PMC12338614.
